# ASSAYED SYSTEM: furin, P09958;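 note: purified furin at 1:10 enzyme:substrate in 50 mM HEPES pH 7.5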
# Sequence (P09958 whole entry): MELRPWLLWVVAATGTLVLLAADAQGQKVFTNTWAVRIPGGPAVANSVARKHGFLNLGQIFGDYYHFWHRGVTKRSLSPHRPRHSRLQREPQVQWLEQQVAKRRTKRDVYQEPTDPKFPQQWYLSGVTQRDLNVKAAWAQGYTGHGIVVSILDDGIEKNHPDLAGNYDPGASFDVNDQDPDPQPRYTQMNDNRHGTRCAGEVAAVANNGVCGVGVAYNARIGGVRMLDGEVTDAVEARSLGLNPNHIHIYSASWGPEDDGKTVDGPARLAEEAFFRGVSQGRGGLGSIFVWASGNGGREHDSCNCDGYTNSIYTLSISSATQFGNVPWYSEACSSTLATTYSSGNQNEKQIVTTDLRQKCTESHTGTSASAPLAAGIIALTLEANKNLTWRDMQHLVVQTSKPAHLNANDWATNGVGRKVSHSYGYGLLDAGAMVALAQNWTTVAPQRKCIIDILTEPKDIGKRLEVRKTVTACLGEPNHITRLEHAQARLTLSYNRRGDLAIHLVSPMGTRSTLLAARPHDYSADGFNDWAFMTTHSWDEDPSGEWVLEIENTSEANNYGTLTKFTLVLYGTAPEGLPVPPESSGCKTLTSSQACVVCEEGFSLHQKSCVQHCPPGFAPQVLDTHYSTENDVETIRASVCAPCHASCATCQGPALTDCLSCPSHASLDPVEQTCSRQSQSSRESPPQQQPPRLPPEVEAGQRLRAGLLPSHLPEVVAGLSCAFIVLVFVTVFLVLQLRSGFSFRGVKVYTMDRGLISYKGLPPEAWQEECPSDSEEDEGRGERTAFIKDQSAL
# PROCEDURE SUMMARY: furin cleavage Z-score vs untreated control; higher = more cleavage, active = 3.5 or more, inactive = 1 or less, 8 variable residues between constant flanks
# ASSAY SETUP: 7.5 min
The other results are listed elsewhere or left out. How many sequences the whole screen found active is unknown.
Outcomes: active, inactive

>  <RESIDUES>
CAEEVTSTWVAGNASASA [HC2172]

>  <CLASSIFICATION>
inactive

$$$$
>  <RESIDUES>
CASTPCSFHLAGNASASA [HC2527]

>  <CLASSIFICATION>
inactive

$$$$
>  <RESIDUES>
CAEVVTSTWFAGNASASA [HC2247]

>  <CLASSIFICATION>
inactive

$$$$
>  <RESIDUES>
CAECVTSTWVAGNASASA [HC2180]

>  <CLASSIFICATION>
inactive

$$$$
>  <RESIDUES>
CATTGEIPFYAGNASASA [HC845]

>  <CLASSIFICATION>
inactive

$$$$
>  <RESIDUES>
CARRGRAARHAGNASASA [FS-1609]

>  <CLASSIFICATION>
active

$$$$
>  <RESIDUES>
CAEAKRGSSSAGNASASA [FS-2476]

>  <CLASSIFICATION>
inactive

$$$$
